// provenance: patent US7615361B2

tested on: P-glycoprotein (PgP); assay: P-glycoprotein (PgP) binding: MTT with and without cyclosporin A; format: cell-based, rat; conditions: H4IIE 24 HR; 1-20% low, 20-50% moderate, 50-100% high PgP interaction
Assignment: determine reported % Difference for the given molecules.
One number for each entry, in %.

molecule: O=C1c2c(O)ccc(O)c2C(=O)c2c(NCCNCCO)ccc(NCCNCCO)c21 [MITOXANTRONE, mitoxantrone]
% Difference / %: 85.1

molecule: CC(C)(C)NC(=O)[C@@H]1CN(Cc2cccnc2)CCN1C[C@@H](O)C[C@@H](Cc1ccccc1)C(=O)N[C@H]1c2ccccc2C[C@H]1O [indinavir]
% Difference / %: 13.9

molecule: COc1cccc2c1C(=O)c1c(O)c3c(c(O)c1C2=O)C[C@@](O)(C(=O)CO)C[C@@H]3O[C@H]1C[C@H](N)[C@H](O)[C@H](C)O1 [ADRIAMYCIN, Adriamycin]
% Difference / %: 76.9

With those in mind, consider the next molecule.
// % Difference lookup, molecule = Cc1ccnc2c1NC(=O)c1cccnc1N2C1CC1 [NEVIRAPINE, nevirapine] , result: 21.9

* * *

Assay: MemTox membrane leakage (AK / α-GST)
Type: cell-based, rat
Conditions: rat; H4IIE, 24 HR exposure; read-out: MemTox TC50
Experimental: One test compound (Compound A) was received as dry powder and evaluated for potential cytotoxicity in a battery of in vitro assays. The compound was tested using both rat cardiomyocytes (CM) from rat neonates and a rat hepatoma (H4IIE) cell line. […] General cytotoxicity was evaluated by monitoring membrane integrity, mitochondrial function, cell proliferation, oxidative stress, and apoptosis. […] The means of each exposure group (n=3-7) were calculated for each assay performed. […]
measurement.label: CC50 at 24 h (µM)
Answers are plain numbers, in µM.

// CC50 at 24 h lookup, molecule = `C=C(C)[C@H]1Cc2c(ccc3c2O[C@@H]2COc4cc(OC)c(OC)cc4[C@@H]2C3=O)O1` , result: 100

* * *

experiment: BrdU incorporation; format: cell-based, human; conditions: human, SK-MEL28 cells; SK-MEL28, 24 HR, run #2; read-out: BrdU TC50
measurement.label: CC50 at 24 h (nM)
Give bare numbers, in nM.

// CC50 at 24 h lookup, compound = `CC[C@@]1(O)C(=O)OCc2c1cc1n(c2=O)Cc2cc3ccccc3nc2-1` , result: 100

* * *

test system: H4IIE cells; test: Predicted Ctox from Tox-Panel; assay type: cell-based, rat; conditions: 24 HR, estimated sustained plasma concentration where toxicity would be expected in vivo
Kindly apply the following: 1 (yes) if Predicted Ctox is less than 60 µM, 0 (no) in every other case.

Here's what some known entries look like.
compound: COc1cccc2c1C(=O)c1c(O)c3c(c(O)c1C2=O)C[C@@](O)(C(=O)CO)C[C@@H]3O[C@H]1C[C@H](N)[C@H](O)[C@H](C)O1
assigned.label: 1 (yes)
--
compound: COc1cccc2c1C(=O)c1c(O)c3c(c(O)c1C2=O)C[C@@](O)(C(=O)CO)C[C@@H]3O[C@H]1C[C@H](N)[C@@H](O)[C@H](C)O1 [EPIRUBICIN, epirubicin]
assigned.label: 1 (yes)
--
compound: O=C1Nc2ccc(Cl)cc2[C@@](C#CC2CC2)(C(F)(F)F)O1
assigned.label: 1 (yes)
--
compound: O=C1c2c(O)ccc(O)c2C(=O)c2c(NCCNCCO)ccc(NCCNCCO)c21
assigned.label: 1 (yes)

Here is the next item to consider.
# input Lab log: compare recorded Predicted Ctox with 60 µM; is it strictly lower for `CC(C)Nc1cccnc1N1CCN(C(=O)c2cc3cc(NS(C)(=O)=O)ccc3[nH]2)CC1` ?
# output 0 (no)

* * *

test: Solubility in culture medium (nephelometry); format: physicochemical; settings: 37 °C, plasma or biological fluid, kinetic from dmso stock, culture media containing 20% serum; NRK 24 HR; read-out: Highest Soluble Concentration
measurement.label: solubility (µM)
Numbers only, in µM.

// solubility lookup, compound = `C=C(C)[C@H]1Cc2c(ccc3c2O[C@@H]2COc4cc(OC)c(OC)cc4[C@@H]2C3=O)O1` , result: 10

* * *

assay: Solubility in culture medium (nephelometry); type: physicochemical; conditions: 37 °C, plasma or biological fluid, kinetic from dmso stock, dosing medium with 20% serum, 37° C.; CM 3 HR; read-out: Highest Soluble Concentration Tested
measurement.label: solubility (µM)
One number for each entry, in µM.

// solubility lookup, molecule = COc1cccc2c1C(=O)c1c(O)c3c(c(O)c1C2=O)C[C@@](O)(C(=O)CO)C[C@@H]3O[C@H]1C[C@H](N)[C@H](O)[C@H](C)O1 [ADRIAMYCIN, Adriamycin] , result: 100

* * *

Assay: Intracellular total glutathione (GSH)
Assay type: cell-based, rat
Conditions: rat
Procedure: One test compound (Compound A) was received as dry powder and evaluated for potential cytotoxicity in a battery of in vitro assays. The compound was tested using both rat cardiomyocytes (CM) from rat neonates and a rat hepatoma (H4IIE) cell line. […] General cytotoxicity was evaluated by monitoring membrane integrity, mitochondrial function, cell proliferation, oxidative stress, and apoptosis. […] The means of each exposure group (n=3-7) were calculated for each assay performed.
measurement.label: CC50 at 3 h (µM)
One number for each entry, in µM.

// CC50 at 3 h lookup, molecule = COc1cccc2c1C(=O)c1c(O)c3c(c(O)c1C2=O)C[C@@](O)(C(=O)CO)C[C@@H]3O[C@H]1C[C@H](N)[C@H](O)[C@H](C)O1 [ADRIAMYCIN, Adriamycin] , result: 61

* * *

Assay: Intracellular ATP levels;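 further: normal rat kidney NRK cells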
Type: cell-based
Details: rat, NRK cells, 24 HR, read-out: ATP TC50
Protocol: Intracellular ATP Levels: Cellular Adenosine triphosphate (ATP) was determined with an assay based on a reaction between ATP+D-luciferin+oxygen catalyzed by luciferase to yield Oxyluciferin+AMP+PPi+CO2+light. The emitted light is proportional to the amount of ATP present. […] Plates were analyzed immediately or stored at −20° C. until needed. […] ATP was quantified by adding ATP substrate solution and then reading luminescence on a Packard Fusion Luminescence or equivalent plate reader. […]
Assignment: determine reported CC50 at 24 h for the given compounds.
Give bare numbers, in µM.

compound: CC[C@@]1(O)C(=O)OCc2c1cc1n(c2=O)Cc2cc3ccccc3nc2-1 [CAMPTOTHECIN, Camptothecin]
result: 9

// CC50 at 24 h lookup, compound = C=C(C)[C@H]1Cc2c(ccc3c2O[C@@H]2COc4cc(OC)c(OC)cc4[C@@H]2C3=O)O1 [ROTENONE, Rotenone] , result: 10

* * *

tested on: H4IIE cells; assay: Predicted Ctox from Tox-Panel; format: cell-based, rat; conditions: 24 HR, estimated sustained plasma concentration where toxicity would be expected in vivo
measurement.label: Predicted Ctox (µM)
One number for each entry, in µM.

smiles.record: Cc1ccnc2c1NC(=O)c1cccnc1N2C1CC1
experimental.target: H4IIE cells
unit: µM
Predicted Ctox: 100
//
smiles.record: COc1cccc2c1C(=O)c1c(O)c3c(c(O)c1C2=O)C[C@@](O)(C(C)=O)C[C@@H]3O[C@H]1C[C@H](N)[C@H](O)[C@H](C)O1
experimental.target: H4IIE cells
unit: µM
Predicted Ctox: 3
//
smiles.record: CC[C@@]1(O)C(=O)OCc2c1cc1n(c2=O)Cc2cc3ccccc3nc2-1
experimental.target: H4IIE cells
unit: µM
Predicted Ctox: 0.1

// Predicted Ctox lookup, compound = `C=C(C)[C@H]1Cc2c(ccc3c2O[C@@H]2COc4cc(OC)c(OC)cc4[C@@H]2C3=O)O1` , result: 0.03

* * *

experiment: MTT reduction; format: cell-based; settings: human, C32 cells; C32, 24 HR; read-out: MTT TC50
measurement.label: CC50 at 24 h

// CC50 at 24 h lookup, compound = `CC[C@@]1(O)C(=O)OCc2c1cc1n(c2=O)Cc2cc3ccccc3nc2-1` , result: 213 µM

* * *

experiment: Cell number (propidium iodide); type: cell-based, rat; conditions: rat; H4IIE, 24 HR exposure; read-out: Cell Number TC50
measurement.label: CC50 at 24 h (nM)
One number for each entry, in nM.

// CC50 at 24 h lookup, compound = C=C(C)[C@H]1Cc2c(ccc3c2O[C@@H]2COc4cc(OC)c(OC)cc4[C@@H]2C3=O)O1 [ROTENONE, Rotenone] , result: 40

* * *

tested on: P-glycoprotein (PgP); test: P-glycoprotein (PgP) binding: MTT with and without cyclosporin A; assay type: cell-based, rat; conditions: H4IIE 24 HR; 1-20% low, 20-50% moderate, 50-100% high PgP interaction
Kindly apply the following: yes if % Difference is less than 20%, no in every other case.

Here's what some known entries look like.
molecule: COc1cccc2c1C(=O)c1c(O)c3c(c(O)c1C2=O)C[C@@](O)(C(=O)CO)C[C@@H]3O[C@H]1C[C@H](N)[C@H](O[C@@H]2CCCCO2)[C@H](C)O1
assigned.label: no

molecule: Cc1cccc(C)c1OCC(=O)N[C@@H](Cc1ccccc1)[C@@H](O)C[C@H](Cc1ccccc1)NC(=O)[C@H](C(C)C)N1CCCNC1=O
assigned.label: yes

molecule: CC(C)c1nc(CN(C)C(=O)N[C@H](C(=O)N[C@@H](Cc2ccccc2)C[C@H](O)[C@H](Cc2ccccc2)NC(=O)OCc2cncs2)C(C)C)cs1
assigned.label: yes

molecule: CC(C)Nc1cccnc1N1CCN(C(=O)c2cc3cc(NS(C)(=O)=O)ccc3[nH]2)CC1
assigned.label: no

molecule: COc1cccc2c1C(=O)c1c(O)c3c(c(O)c1C2=O)C[C@@](O)(C(=O)CO)C[C@@H]3O[C@H]1C[C@H](N)[C@@H](O)[C@H](C)O1 [EPIRUBICIN, epirubicin]
assigned.label: no

Here is the next item to consider.
# input Lab log: compare recorded % Difference with 20%; is it strictly lower for `O=C1Nc2ccc(Cl)cc2[C@@](C#CC2CC2)(C(F)(F)F)O1` ?
# output no
